Measured Target: HLA-B*53:01
Protocol Notes: IEDB peptide-MHC binding, purified MHC/competitive/fluorescence; bounds were set here for any values at or beyond the usual limits of such assays
Experimental Setup: source organism: Ornithorhynchus anatinus
Readout Name: IC50 (µM)

YSLEYFQF	4.79

###

Measured Target: HLA-B*15:01
Protocol Notes: IEDB peptide-MHC binding, purified MHC/direct/fluorescence; filed as Kd, often an IC50 or EC50 that approximates it; bounds were set here for any values at or beyond the usual limits of such assays
Experimental Setup: source organism: Aggregatibacter actinomycetemcomitans
pKd: −log10 of the molar value.
Readout Name: pKd

TTRAWFDKK	≤ 4.70

###

Measured Target: HLA-A*03:01
Protocol Notes: IEDB peptide-MHC binding, purified MHC/competitive/radioactivity; filed as Kd, often an IC50 or EC50 that approximates it; bounds were set here for any values at or beyond the usual limits of such assays
Experimental Setup: source organism: Dengue virus 4 Philippines/H241/1956
Readout Name: Kd (nM)

MTLWYMWQVK	7.82
KVASAGISYK	3.14
WSYYMATLK	3.33
ILKRWGQLKK	38.5
